The following compounds are listed with their measured pIC50 values.
target: Glycogen synthase kinase-3 beta (Homo sapiens, UniProt P49841)
Sequence (P49841 whole entry): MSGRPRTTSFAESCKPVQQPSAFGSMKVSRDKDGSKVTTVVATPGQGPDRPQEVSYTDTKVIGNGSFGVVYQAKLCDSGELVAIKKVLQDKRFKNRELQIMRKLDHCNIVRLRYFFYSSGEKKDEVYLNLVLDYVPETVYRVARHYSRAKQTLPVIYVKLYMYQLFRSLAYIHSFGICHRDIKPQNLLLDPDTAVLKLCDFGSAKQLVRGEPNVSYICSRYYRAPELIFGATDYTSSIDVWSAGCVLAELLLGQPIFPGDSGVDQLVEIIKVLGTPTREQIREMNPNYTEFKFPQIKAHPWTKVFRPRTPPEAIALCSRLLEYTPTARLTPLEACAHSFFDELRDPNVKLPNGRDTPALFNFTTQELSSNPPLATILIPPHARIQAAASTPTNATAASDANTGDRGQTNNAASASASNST
pIC50: −log10 of the molar value.
observable: pIC50

compound=Cc1nc2ccc(/C=C3\N=C(NC4CCCCC4)NC3=O)cc2s1 obs_value="< 5.00"
compound="CO[C@H]1Cc2ccccc2[C@H]1NC1=N/C(=C\\c2ccc3ncsc3c2)C(=O)N1 (racemic)" obs_value="< 5.00"
compound=Cn1cc2cc(/C=C3\N=C(NC45CC6CC(CC(C6)C4)C5)NC3=O)ccc2n1 obs_value="< 5.00"
compound=O=C1NC(N[C@H]2CN3CCC2CC3)=N/C1=C\c1ccc2ncsc2c1 obs_value="< 5.00"
compound=O=C1NC(NCc2ccccc2OC(F)(F)F)=N/C1=C\c1ccc2ncsc2c1 obs_value="< 5.00"
compound=COC(=O)[C@@H](Cc1ccccc1)NC1=N/C(=C\c2ccc3ncsc3c2)C(=O)N1 obs_value="< 5.00"
